- experiment_notes: Antianoxic activity test (Test Example 2): effect on the survival time under low-oxygen load at atmospheric pressure
- Type: in vivo, mice (ddY, five-week-old males)
- measurement_setup: 300 mg/kg oral; mouse; 96% nitrogen and 4% oxygen; vs control group; read-out: Antianoxia activity [increase ratio (%) of the survival time]
- Source text: Antianoxic activity test (effect on the survival time under low-oxygen load at atmospheric pressure) Groups of 10 mice (ddY, five-week-old males) were used for the experiment with reference to Japan Journal of Pharmacology, 81, 421~429 (1983), same, 86, 323~328 (1985) and same, 89, 355~363 (1987). […]
assay_endpoint: ILS at 300 mg/kg

IN: Find the recorded ILS at 300 mg/kg belonging to O=C1CCCN1C(=O)Nc1nccs1 and report it.
OUT: 35%

IN: Find the recorded ILS at 300 mg/kg belonging to COc1ccc(NC(=O)N2CCCC2=O)cc1OC and report it.
OUT: 14%

IN: Find the recorded ILS at 300 mg/kg belonging to O=C1CCCN1C(=O)Nc1ccncc1 and report it.
OUT: 16%

IN: Find the recorded ILS at 300 mg/kg belonging to CN(C)c1ccc(NC(=O)N2CCCC2=O)cc1 and report it.
OUT: 9%

IN: Find the recorded ILS at 300 mg/kg belonging to COc1cc(NC(=O)N2CCCC2=O)cc(OC)c1OC and report it.
OUT: 66%

IN: Find the recorded ILS at 300 mg/kg belonging to O=C1CCCN1C(=O)Nc1ccccc1 and report it.
OUT: 39%
